run.description: In-vitro intrinsic dissolution of 200 mg pellets of API without excipients
Format: physicochemical
stated.conditions: 240 min; Table 8; 200 mg pellet, 0.01N HCl, 37° C., paddle 75 rpm
Decide using % release of Compound (I) from the respective Salts alone. Strictly below 90%: class 1. Equal to or above 90%: class 0.

>>> class_label("CC(Cn1cnc2c(N)ncnc21)OCP(=O)(OCOC(=O)C(C)(C)C)Oc1ccccc1.O=C(O)C(=O)O (stereo not drawn) [Oxalate]")
"class 1"
>>> class_label("CC(Cn1cnc2c(N)ncnc21)OCP(=O)(OCOC(=O)C(C)(C)C)Oc1ccccc1.O=C(O)CC(O)(CC(=O)O)C(=O)O (stereo not drawn) [Citrate]")
"class 1"
>>> class_label("CC(Cn1cnc2c(N)ncnc21)OCP(=O)(OCOC(=O)C(C)(C)C)Oc1ccccc1.O=C(O)/C=C/C(=O)O (stereo not drawn) [Fumarate]")
"class 1"

Next up:
// query Please indicate whether the reported % release of Compound (I) from the respective Salts of CC(Cn1cnc2c(N)ncnc21)OCP(=O)(OCOC(=O)C(C)(C)C)Oc1ccccc1.O=P(O)(O)O (stereo not drawn) [Phosphate] is strictly below 90%.
// result class 0

---

run.description: In-vitro intrinsic dissolution of 200 mg pellets of API without excipients
Assay type: physicochemical
stated.conditions: 90 min; Table 8; 200 mg pellet, 0.01N HCl, 37° C., paddle 75 rpm
Decide using % release of Compound (I) from the respective Salts alone. Strictly below 40%: 1. Equal to or above 40%: 0.

>>> class_label("CC(Cn1cnc2c(N)ncnc21)OCP(=O)(OCOC(=O)C(C)(C)C)Oc1ccccc1.O=P(O)(O)O (stereo not drawn) [Phosphate]")
0
>>> class_label("CC(Cn1cnc2c(N)ncnc21)OCP(=O)(OCOC(=O)C(C)(C)C)Oc1ccccc1.O=C(O)C(=O)O (stereo not drawn) [Oxalate]")
1
>>> class_label("CC(Cn1cnc2c(N)ncnc21)OCP(=O)(OCOC(=O)C(C)(C)C)Oc1ccccc1.O=C(O)/C=C/C(=O)O (stereo not drawn) [Fumarate]")
1

// query Please indicate whether the reported % release of Compound (I) from the respective Salts of CC(Cn1cnc2c(N)ncnc21)OCP(=O)(OCOC(=O)C(C)(C)C)Oc1ccccc1.O=C(O)C(O)C(O)C(=O)O (stereo not drawn) [Tartrate] is strictly below 40%.
// result 1

// query Please indicate whether the reported % release of Compound (I) from the respective Salts of CC(Cn1cnc2c(N)ncnc21)OCP(=O)(OCOC(=O)C(C)(C)C)Oc1ccccc1.O=C(O)CCC(=O)O (stereo not drawn) [Succinate] is strictly below 40%.
// result 0

// query Please indicate whether the reported % release of Compound (I) from the respective Salts of CC(Cn1cnc2c(N)ncnc21)OCP(=O)(OCOC(=O)C(C)(C)C)Oc1ccccc1.O=C(O)CC(O)(CC(=O)O)C(=O)O (stereo not drawn) [Citrate] is strictly below 40%.
// result 0

---

run.description: In-vitro intrinsic dissolution of 200 mg pellets of API without excipients
Assay type: physicochemical
stated.conditions: 150 min; Table 8; 200 mg pellet, 0.01N HCl, 37° C., paddle 75 rpm
quantity: % release of Compound (I) from the respective Salts (%)
Numbers only, in %.

Example molecules with recorded % release of Compound (I) from the respective Salts:
>>> numeric_readout("CC(Cn1cnc2c(N)ncnc21)OCP(=O)(OCOC(=O)C(C)(C)C)Oc1ccccc1.O=C(O)CCC(=O)O (stereo not drawn) [Succinate]")
74
>>> numeric_readout("CC(Cn1cnc2c(N)ncnc21)OCP(=O)(OCOC(=O)C(C)(C)C)Oc1ccccc1.O=C(O)/C=C/C(=O)O (stereo not drawn) [Fumarate]")
56
>>> numeric_readout("CC(Cn1cnc2c(N)ncnc21)OCP(=O)(OCOC(=O)C(C)(C)C)Oc1ccccc1.O=C(O)C(O)C(O)C(=O)O (stereo not drawn) [Tartrate]")
59
>>> numeric_readout("CC(Cn1cnc2c(N)ncnc21)OCP(=O)(OCOC(=O)C(C)(C)C)Oc1ccccc1.O=P(O)(O)O (stereo not drawn) [Phosphate]")
105
>>> numeric_readout("CC(Cn1cnc2c(N)ncnc21)OCP(=O)(OCOC(=O)C(C)(C)C)Oc1ccccc1.O=C(O)C(=O)O (stereo not drawn) [Oxalate]")
40

// query What value of % release of Compound (I) from the respective Salts has been recorded for this entry: CC(Cn1cnc2c(N)ncnc21)OCP(=O)(OCOC(=O)C(C)(C)C)Oc1ccccc1.O=C(O)CC(O)(CC(=O)O)C(=O)O (stereo not drawn) [Citrate]
// result 66

---

Exercise: state measured % release of Compound (I) from the respective Salts for each of the compounds provided.
run.description: In-vitro intrinsic dissolution of 200 mg pellets of API without excipients
Format: physicochemical
stated.conditions: 120 min; Table 8; 200 mg pellet, 0.01N HCl, 37° C., paddle 75 rpm
One number for each entry, in %.

Example compounds with recorded % release of Compound (I) from the respective Salts:
>>> numeric_readout("CC(Cn1cnc2c(N)ncnc21)OCP(=O)(OCOC(=O)C(C)(C)C)Oc1ccccc1.O=C(O)C(=O)O (stereo not drawn) [Oxalate]")
31
>>> numeric_readout("CC(Cn1cnc2c(N)ncnc21)OCP(=O)(OCOC(=O)C(C)(C)C)Oc1ccccc1.O=C(O)C(O)C(O)C(=O)O (stereo not drawn) [Tartrate]")
47
>>> numeric_readout("CC(Cn1cnc2c(N)ncnc21)OCP(=O)(OCOC(=O)C(C)(C)C)Oc1ccccc1.O=P(O)(O)O (stereo not drawn) [Phosphate]")
106
>>> numeric_readout("CC(Cn1cnc2c(N)ncnc21)OCP(=O)(OCOC(=O)C(C)(C)C)Oc1ccccc1.O=C(O)CCC(=O)O (stereo not drawn) [Succinate]")
59
>>> numeric_readout("CC(Cn1cnc2c(N)ncnc21)OCP(=O)(OCOC(=O)C(C)(C)C)Oc1ccccc1.O=C(O)CC(O)(CC(=O)O)C(=O)O (stereo not drawn) [Citrate]")
70

// query What value of % release of Compound (I) from the respective Salts has been recorded for this entry: CC(Cn1cnc2c(N)ncnc21)OCP(=O)(OCOC(=O)C(C)(C)C)Oc1ccccc1.O=C(O)/C=C/C(=O)O (stereo not drawn) [Fumarate]
// result 45

---

run.description: In-vitro intrinsic dissolution of 200 mg pellets of API without excipients
Type: physicochemical
stated.conditions: 5 min; Table 8; 200 mg pellet, 0.01N HCl, 37° C., paddle 75 rpm
Exercise: state measured % release of Compound (I) from the respective Salts for each of the compounds provided.
One number for each entry, in %.

Example compounds with recorded % release of Compound (I) from the respective Salts:
>>> numeric_readout("CC(Cn1cnc2c(N)ncnc21)OCP(=O)(OCOC(=O)C(C)(C)C)Oc1ccccc1.O=C(O)CC(O)(CC(=O)O)C(=O)O (stereo not drawn) [Citrate]")
4
>>> numeric_readout("CC(Cn1cnc2c(N)ncnc21)OCP(=O)(OCOC(=O)C(C)(C)C)Oc1ccccc1.O=P(O)(O)O (stereo not drawn) [Phosphate]")
19
>>> numeric_readout("CC(Cn1cnc2c(N)ncnc21)OCP(=O)(OCOC(=O)C(C)(C)C)Oc1ccccc1.O=C(O)C(=O)O (stereo not drawn) [Oxalate]")
2
>>> numeric_readout("CC(Cn1cnc2c(N)ncnc21)OCP(=O)(OCOC(=O)C(C)(C)C)Oc1ccccc1.O=C(O)/C=C/C(=O)O (stereo not drawn) [Fumarate]")
3
>>> numeric_readout("CC(Cn1cnc2c(N)ncnc21)OCP(=O)(OCOC(=O)C(C)(C)C)Oc1ccccc1.O=C(O)C(O)C(O)C(=O)O (stereo not drawn) [Tartrate]")
2

Shifting focus to the compound that follows.
// query What value of % release of Compound (I) from the respective Salts has been recorded for this entry: CC(Cn1cnc2c(N)ncnc21)OCP(=O)(OCOC(=O)C(C)(C)C)Oc1ccccc1.O=C(O)CCC(=O)O (stereo not drawn) [Succinate]
// result 3

---

run.description: In-vitro intrinsic dissolution of 200 mg pellets of API without excipients
Assay type: physicochemical
stated.conditions: 30 min; Table 8; 200 mg pellet, 0.01N HCl, 37° C., paddle 75 rpm
Decide using % release of Compound (I) from the respective Salts alone. Strictly below 10%: t. Equal to or above 10%: f.

>>> class_label("CC(Cn1cnc2c(N)ncnc21)OCP(=O)(OCOC(=O)C(C)(C)C)Oc1ccccc1.O=C(O)C(O)C(O)C(=O)O (stereo not drawn) [Tartrate]")
"f"

// query Please indicate whether the reported % release of Compound (I) from the respective Salts of CC(Cn1cnc2c(N)ncnc21)OCP(=O)(OCOC(=O)C(C)(C)C)Oc1ccccc1.O=C(O)C(=O)O (stereo not drawn) [Oxalate] is strictly below 10%.
// result t

// query Please indicate whether the reported % release of Compound (I) from the respective Salts of CC(Cn1cnc2c(N)ncnc21)OCP(=O)(OCOC(=O)C(C)(C)C)Oc1ccccc1.O=P(O)(O)O (stereo not drawn) [Phosphate] is strictly below 10%.
// result f

// query Please indicate whether the reported % release of Compound (I) from the respective Salts of CC(Cn1cnc2c(N)ncnc21)OCP(=O)(OCOC(=O)C(C)(C)C)Oc1ccccc1.O=C(O)/C=C/C(=O)O (stereo not drawn) [Fumarate] is strictly below 10%.
// result f

// query Please indicate whether the reported % release of Compound (I) from the respective Salts of CC(Cn1cnc2c(N)ncnc21)OCP(=O)(OCOC(=O)C(C)(C)C)Oc1ccccc1.O=C(O)CC(O)(CC(=O)O)C(=O)O (stereo not drawn) [Citrate] is strictly below 10%.
// result f

// query Please indicate whether the reported % release of Compound (I) from the respective Salts of CC(Cn1cnc2c(N)ncnc21)OCP(=O)(OCOC(=O)C(C)(C)C)Oc1ccccc1.O=C(O)CCC(=O)O (stereo not drawn) [Succinate] is strictly below 10%.
// result f
